system: Db/db (Lepr^db) mouse; test: Oral glucose tolerance test (OGTT) in the diabetic Db/db mouse; type: in vivo; settings: Db/db mice, 5 or 10 mg/kg ip every 3 days x4; day 14, oral glucose 1.5 g/kg, 0-120 min; vs saline
Assay Readout: % Reduction in OGTT Above Baseline AUC (%)
API: value field is a number in %; no unit string.

Here is how some compounds turned out for % Reduction in OGTT Above Baseline AUC.
1. COC(=O)CC[C@@H](C)[C@H]1CCC2C3C[C@@H](O)[C@H]4C[C@@H](NCCN)CC[C@]4(C)C3CC[C@@]21C (some centres unmarked) ... 47
2. CC(C)[C@@H](CC[C@@H](C)[C@H]1CCC2C3C(CC[C@@]21C)[C@@]1(C)CC[C@H](NCCCNCCCCNCCCN)C[C@@H]1C[C@H]3O)OS(=O)(=O)O (some centres unmarked) [Compound 1873] ... 47
3. CC(C)[C@@H](CC[C@@H](C)[C@H]1CCC2C3C(CC[C@@]21C)[C@@]1(C)CC[C@H](NCCCNCCCCNCCCN)C[C@H]1C[C@H]3O)OS(=O)(=O)O (some centres unmarked) ... 49
4. CC(C)[C@H](OS(=O)(=O)O)[C@@H](C)[C@H]1CCC2C3C(CC[C@@]21C)[C@@]1(C)CC[C@H](NCCCNCCCCNCCCN)C[C@@H]1C[C@H]3O (some centres unmarked) ... 60

Please examine the following record next.
Lookup result for CC(C)[C@@H](CC[C@@H](C)[C@H]1CCC2C3C(CC[C@@]21C)[C@@]1(C)CC[C@H](NCCCNCCCCNCCCN)C[C@@H]1C[C@H]3O)OS(=O)(=O)O (some centres unmarked) [Compound 1436] ; measured % Reduction in OGTT Above Baseline AUC: 83

* * *

biological target: full length TCPTP (Homo sapiens); construct: except full length TCPTP was used as the enzyme; test: Inhibition of TCPTP by steroid analogues (pNPP hydrolysis); assay type: biochemical; details: 200 μM inhibitor; pNPP substrate
Sequence (P17706 whole entry, species assumed): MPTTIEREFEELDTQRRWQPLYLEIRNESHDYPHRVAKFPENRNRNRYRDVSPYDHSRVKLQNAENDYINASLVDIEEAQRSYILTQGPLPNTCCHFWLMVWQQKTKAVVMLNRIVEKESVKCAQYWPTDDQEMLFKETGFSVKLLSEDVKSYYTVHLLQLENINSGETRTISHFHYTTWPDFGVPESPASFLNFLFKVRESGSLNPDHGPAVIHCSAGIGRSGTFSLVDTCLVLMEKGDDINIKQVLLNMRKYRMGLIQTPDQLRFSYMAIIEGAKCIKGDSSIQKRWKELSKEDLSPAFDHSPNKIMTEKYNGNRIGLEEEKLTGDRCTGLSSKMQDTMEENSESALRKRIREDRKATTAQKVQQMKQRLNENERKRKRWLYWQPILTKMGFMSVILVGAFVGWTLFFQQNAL
Assay Readout: inhibition at 200 µM (%)
API: value field is a number in %; no unit string.

Here is how some molecules turned out for inhibition at 200 µM.
1. COC(=O)CC[C@@H](C)[C@H]1CCC2C3C(CC[C@@]21C)[C@@]1(C)CC[C@H](NCCCNCCCCN)C[C@@H]1C[C@H]3O (some centres unmarked) ... 0
2. CC(C)CCC[C@@H](C)[C@H]1CCC2C3CC[C@H]4C[C@@H](NCCCNCCCCNCCCN)CC[C@]4(C)C3CC[C@@]21C (some centres unmarked) ... 83
3. CC(C)CCC[C@@H](C)[C@H]1CCC2C3C(CC[C@@]21C)[C@@]1(C)CC[C@H](NCCCNCCCCN)C[C@@H]1C[C@H]3O (some centres unmarked) ... 0

Lookup result for CC(C)[C@@H](CC[C@@H](C)[C@H]1CCC2C3C(CC[C@@]21C)[C@@]1(C)CC[C@H](NCCCNCCCCNCCCN)C[C@@H]1C[C@H]3O)OS(=O)(=O)O (some centres unmarked) ; measured inhibition at 200 µM: 0

Lookup result for C[C@H](CCS(=O)(=O)O)[C@H]1CCC2C3CC[C@H]4C[C@@H](NCCCNCCCCN)CC[C@]4(C)C3CC[C@@]21C (some centres unmarked) ; measured inhibition at 200 µM: 44
